- SYSTEM_TESTED: cardiac glycoside (CG) binding site (digitalis receptor) of heart muscle
- ASSAY_METHOD_TEXT: 3H-ouabain radioligand binding assay (RBA)
- Set-up: species or system dog
- EXPERIMENTAL_CONDITIONS: cardiac receptor of heart muscle; membranes from dog myocardium; read-out: binding / displacement potency in the 3H-ouabain RBA (IC50)
- Method: An extensive study has been conducted by the inventors with respect to a wide series of steroids of the pregnane and androstane type. The potencies of these steroids were determined in a ^3 H-ouabain radioligand binding assay (RBA). […] A number of progesterone derivatives, having a 17α-acetoxy group and various functions at C-3 and C-6, interact at the cardiac glycoside (CG) binding site, as measured by the RBA with membranes from dog myocardium. […]
Label key: Y means IC50 under 30 µM; N means IC50 of 30 µM or more.

>  <MOLECULE>
CC(=O)O[C@H]1CC[C@@]2(C)[C@H](CC[C@@H]3[C@@H]2CC[C@]2(C)C(=O)CC[C@]32O)C1

>  <CAT>
N

$$$$
>  <MOLECULE>
C[C@]12CCC(=O)C=C1C(=O)C[C@@H]1[C@@H]2CC[C@]2(C)C(=O)CC[C@@H]12

>  <CAT>
Y

$$$$
>  <MOLECULE>
C[C@H]1O[C@@H](O[C@H]2[C@@H](O)C[C@H](O[C@H]3[C@@H](O)C[C@H](O[C@H]4CC[C@@]5(C)[C@H](CC[C@@H]6[C@@H]5CC[C@]5(C)[C@@H](C(=O)CO)CC[C@]65O)C4)O[C@@H]3C)O[C@@H]2C)C[C@H](O)[C@@H]1O [3β-tridigitoxoside (FIG. 8, 3)]

>  <CAT>
Y

$$$$
>  <MOLECULE>
C[C@]12CCC(=O)C=C1CC[C@@H]1[C@@H]2CC[C@]2(C)C(=O)CC[C@@H]12

>  <CAT>
Y

$$$$
>  <MOLECULE>
CC(=O)[C@H]1CC[C@]2(O)[C@@H]3CCC4=C[C@@H](OC(=O)CCC(=O)O)CC[C@]4(C)[C@H]3CC[C@]12C

>  <CAT>
N

$$$$

Now turn to the next molecule.
input: Answer whether the molecule CC(=O)[C@@]1(C)CC[C@H]2[C@@H]3CCC4=CC(=O)CC[C@]4(C)[C@H]3CC[C@@]21C [17b] has IC50 strictly less than 30 µM
output: Y
